- target.or.system: Tyrosine-protein kinase Lck (Homo sapiens)
- Sequence (P06239 whole entry): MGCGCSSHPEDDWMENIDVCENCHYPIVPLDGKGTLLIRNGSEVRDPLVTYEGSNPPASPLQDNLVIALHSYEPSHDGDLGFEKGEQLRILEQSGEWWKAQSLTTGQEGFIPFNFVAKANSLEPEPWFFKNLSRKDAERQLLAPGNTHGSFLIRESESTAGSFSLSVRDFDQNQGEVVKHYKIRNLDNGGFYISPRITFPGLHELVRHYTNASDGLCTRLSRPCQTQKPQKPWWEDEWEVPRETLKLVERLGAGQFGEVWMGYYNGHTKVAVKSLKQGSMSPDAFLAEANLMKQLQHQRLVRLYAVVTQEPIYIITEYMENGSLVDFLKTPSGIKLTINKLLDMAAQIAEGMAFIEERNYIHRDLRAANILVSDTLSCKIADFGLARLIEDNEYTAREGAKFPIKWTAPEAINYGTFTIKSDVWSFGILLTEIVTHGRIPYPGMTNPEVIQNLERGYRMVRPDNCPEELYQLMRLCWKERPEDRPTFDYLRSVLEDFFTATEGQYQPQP
assay.readout: Ki (nM)
# unit: nM | format: bare number

query: // map O=C(Cc1ccccc1)Nc1cc(-c2nc3sccn3c2-c2ccnc(Nc3ccc(N4CCOCC4)cc3)n2)ccc1Cl to recorded Ki (system: Tyrosine-protein kinase Lck (Homo sapiens))
result: 79.4

* * *

- target.or.system: Cyclin-dependent kinase 1 (Homo sapiens)
- Sequence (P06493 whole entry): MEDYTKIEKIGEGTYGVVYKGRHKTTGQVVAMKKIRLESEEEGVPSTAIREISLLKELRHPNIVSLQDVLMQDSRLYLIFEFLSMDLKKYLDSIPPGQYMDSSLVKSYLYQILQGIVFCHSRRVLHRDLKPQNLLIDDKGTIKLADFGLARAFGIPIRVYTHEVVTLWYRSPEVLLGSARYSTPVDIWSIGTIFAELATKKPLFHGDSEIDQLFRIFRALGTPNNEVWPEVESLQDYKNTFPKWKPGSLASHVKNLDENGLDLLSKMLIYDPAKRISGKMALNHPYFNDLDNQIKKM
This listing pairs compounds with measured Ki.

given_smiles=O[C@H]1CC[C@H](Nc2nc(Cl)cc(-c3c[nH]c4ncccc34)n2)CC1 target_or_system="Cyclin-dependent kinase 1 (Homo sapiens)" result="39.8 nM"

As a next step, examine the compound that follows.
query: So what's the measured Ki for this one? CN(C)[C@H]1CC[C@H](Nc2nc(Cl)cc(-c3c[nH]c4ncccc34)n2)CC1
result: > 10000 nM

* * *

- target.or.system: Platelet-derived growth factor receptor alpha (Homo sapiens, UniProt P16234)
- Sequence (P16234 whole entry): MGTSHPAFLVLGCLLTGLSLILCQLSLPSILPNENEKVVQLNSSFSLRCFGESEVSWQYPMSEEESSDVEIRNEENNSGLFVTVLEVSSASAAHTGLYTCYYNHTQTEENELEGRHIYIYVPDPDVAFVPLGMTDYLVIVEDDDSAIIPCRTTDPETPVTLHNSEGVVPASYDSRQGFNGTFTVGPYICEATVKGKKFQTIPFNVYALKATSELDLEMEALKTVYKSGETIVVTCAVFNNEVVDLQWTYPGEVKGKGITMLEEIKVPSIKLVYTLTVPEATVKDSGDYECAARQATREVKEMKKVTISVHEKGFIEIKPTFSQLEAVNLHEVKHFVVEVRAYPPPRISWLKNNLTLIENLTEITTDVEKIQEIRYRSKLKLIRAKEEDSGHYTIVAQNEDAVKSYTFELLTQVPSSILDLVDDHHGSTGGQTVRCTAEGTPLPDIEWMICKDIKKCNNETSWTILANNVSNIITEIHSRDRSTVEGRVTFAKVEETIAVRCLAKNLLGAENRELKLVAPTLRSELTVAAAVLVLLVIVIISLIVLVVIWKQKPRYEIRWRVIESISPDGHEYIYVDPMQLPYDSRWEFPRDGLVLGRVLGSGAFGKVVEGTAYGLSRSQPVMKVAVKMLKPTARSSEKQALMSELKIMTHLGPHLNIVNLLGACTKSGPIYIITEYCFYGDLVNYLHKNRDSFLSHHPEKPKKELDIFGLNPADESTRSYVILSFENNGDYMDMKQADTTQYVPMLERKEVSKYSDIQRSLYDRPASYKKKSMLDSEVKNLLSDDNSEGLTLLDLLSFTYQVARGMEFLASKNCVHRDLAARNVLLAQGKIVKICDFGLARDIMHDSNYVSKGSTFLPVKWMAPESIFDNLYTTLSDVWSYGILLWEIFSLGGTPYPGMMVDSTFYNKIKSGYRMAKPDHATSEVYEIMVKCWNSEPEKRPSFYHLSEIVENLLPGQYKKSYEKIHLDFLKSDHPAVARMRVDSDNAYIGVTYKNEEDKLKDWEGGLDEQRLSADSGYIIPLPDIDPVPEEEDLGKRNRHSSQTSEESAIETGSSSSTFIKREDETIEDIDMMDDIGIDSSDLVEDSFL
assay.readout: Ki

query: Reported Ki for C[C@@H](O)Cn1cc(-c2cnc(N)c3c(-c4ccc(NC(=O)Nc5cccc(F)c5)cc4)csc23)cn1 : what is it?
result: > 10 µM
